Hey, just so you know, these numbers are from PubChem BioAssay AID1159580.

Reported normalized growth values for a set of compounds
assaySummary: chemical genetic growth profiling, strain panel (AID 1159580);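 further: tested at 20 µM; growth read once vehicle control cultures reached saturation at 30 °C; 1 = growth at the plate median or of vehicle wells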
testParameters: S. cerevisiae deletion strains, growth OD, locus YNL271C, strain bni1, stronger effect = lower value
Out of some 5,500 compounds screened, about 2,000 (36%) were called active. Inconclusive results (about 18%) are left out. The list shows a part of the results. Where a SMILES comes first, the peptide text is derived from it. The star is where a group is joined. For = O=C*
Hey, just send me the number, nothing else.

Guide cases for normalized growth, answers given:
compound | normalized growth
COc1cc(C(=O)O[C@H]2CC[C@@]3(C)[C@@H]4CC[C@H]5[C@]6(O)C[C@H](O)[C@@]7(O)[C@@H](CN8C[C@@H](C)CC[C@H]8[C@@]7(C)O)[C@]6(O)C[C@@]53O[C@]24O)cc(OC)c1OC | 0.993
Nc1c2c(nc3ccccc13)CCCC2 | 1.02
Clc1ccccc1C(c1ccccc1)(c1ccccc1)n1ccnc1 | 0.0905
Fc1ccc(C(c2ccccc2)(c2ccccc2F)n2ccnc2)cc1 (stereo not given) | 0.114
Cc1ccnc(NS(=O)(=O)c2ccc(N)cc2)n1 | 1.02

QUERY: Look at this compound and give its reported normalized growth. `NNc1nncc2ccccc12`
RESULT: 0.993

QUERY: Need normalized growth, item CSCCC(NC=O)C(=O)NC(Cc1ccccc1)C(=O)O (stereo not drawn) (For-Met-Phe-OH; configuration not given here)
RESULT: 1.02

QUERY: Can you share its normalized growth? I mean this compound: C/C=C(/C)C(=O)OC1CCC2(C)C3CCC4C5(O)CC(O)C6(O)C(CN7CC(C)CCC7C6(C)O)C5(O)CC42OC13O (stereo not given)
RESULT: 0.996

QUERY: Given the compound Nc1ccccc1C(=O)CC(N)C(=O)O (stereo not given) , what is its reported normalized growth?
RESULT: 0.984

QUERY: Given the compound COc1cccc(OC)c1OCCNCC1COc2ccccc2O1 (stereo not given) , what is its reported normalized growth?
RESULT: 0.983

* * *

assaySummary: chemical genetic growth profiling, strain panel (AID 1159580);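 further: tested at 20 µM; growth read once vehicle control cultures reached saturation at 30 °C; 1 = growth at the plate median or of vehicle wells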
testParameters: S. cerevisiae deletion strains, growth OD, locus YKL048C, strain ELM1
About 2,000 (36%) of roughly 5,500 compounds were called active. Inconclusive results (about 18%) are left out. Rule as the data show it: active = normalized growth mostly below about 0.91 (no sharp cut-off); inconclusive = no clear call, values can overlap the other calls; inactive = mostly above about 0.92. The list shows a part of the results.
Allowed answers: true (1) (active), false (0) (inactive)

Previously resolved entries follow.
molecule | labelValue
Cc1ccc(S(=O)(=O)n2c(Sc3ccc([N+](=O)[O-])cc3[N+](=O)[O-])nc3cc(C)ccc32)cc1 | false (0)
CC(C)(C)C(=O)N(Cc1cccnc1)Cc1ccc(Cl)cc1Cl | false (0)
O=S(=O)(NC(=S)Nc1ccc(Cl)c(Cl)c1)c1ccccc1 | false (0)

Shifting focus to the molecule that follows.
QUERY: // outcome(item) with item = `O=C(NCCc1ccncc1)c1ccc(Cl)c(Cl)c1`
RESULT: false (0)

* * *

assaySummary: chemical genetic growth profiling, strain panel (AID 1159580);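 further: tested at 20 µM; growth read once vehicle control cultures reached saturation at 30 °C; 1 = growth at the plate median or of vehicle wells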
testParameters: S. cerevisiae deletion strains, growth OD, locus YNL233W, strain BNI4, stronger effect = lower value
Out of some 5,500 compounds screened, about 2,000 (36%) were called active. Roughly 18% stayed inconclusive and do not appear here. This is one part of the list. Where a SMILES comes first, the peptide text is derived from it. The star is where a group is joined. For = O=C*
Listed next: entries and their corresponding normalized growth.

molecule | endpointName | result
O=c1[nH]cc(F)c(=O)[nH]1 | normalized growth | 0.843 (active)
O=C(COc1ccc(Cl)cc1)N1CCN(Cc2ccc3c(c2)OCO3)CC1 | normalized growth | 0.941 (inactive)
COC(=O)Nc1nc2ccc(C(=O)c3ccccc3)cc2[nH]1 | normalized growth | 0.814 (active)
CC1(C)CC[C@]2(C(=O)O)CC[C@]3(C)C(=CCC4[C@@]5(C)CC[C@H](O)[C@@](C)(CO)C5CC[C@]43C)C2C1 (some centres undefined) | normalized growth | 1.03 (inactive)
CSCCC(NC=O)C(=O)NC(Cc1ccccc1)C(=O)O (stereo not drawn) (For-Met-Phe-OH; configuration not given here) | normalized growth | 1 (inactive)

QUERY: Tell me the measured normalized growth of `CC(C)(C#N)O[C@@H]1O[C@H](CO)[C@@H](O)[C@H](O)[C@H]1O` , please.
RESULT: 1.02 (inactive)

QUERY: Which measured normalized growth value corresponds to `NC(N)=N/N=C/c1c(Cl)cccc1Cl` ?
RESULT: 1 (inactive)

QUERY: Query: normalized growth; subject: N#CC(O[C@@H]1O[C@H](CO[C@@H]2O[C@H](CO)[C@@H](O)[C@H](O)[C@H]2O)[C@@H](O)[C@H](O)[C@H]1O)c1ccccc1 (some centres undefined)
RESULT: 1.04 (inactive)

QUERY: Need normalized growth, item `COC(=O)Nc1nc2ccc(Sc3ccccc3)cc2[nH]1`
RESULT: 0.977 (inactive)
